- test target: T1, HER2ECDHis (human, UniProt P04626 23-653, biotinylated in the cross-block ELISA (sites not given))
- T1 construct: range 1-653; expressed in HEK-293F; also called soluble HER2; biotinylated HER2ECDHis
- method notes: ELISA; competitor 098

binder | % binding vs no competitor
HuMab 050 (antibody, V domains shown, also called TH1014-050; PC1014-050) VH: EVQLLESGGGLVQPGGSLRLSCAASGFTFSSYAMNWVRQAPGKGLEWVSAISGRGGTTYYADSVKGRFTISRDNSKNTLYLQMSSLRAEDTAVYYCAKARANWDYFDYWGQGTLVTVSS VL: DIQMTQSPSSVSASVGDRVTITCRASQGISSWLAWYQHKPGKAPKLLIYAASILQSGVPSRFSGSGSGTDFTLTISSLQPEDFATYYCQQANSFPITFGQGTRLEIK | 102%
HuMab 129 (antibody, V domains shown) VH: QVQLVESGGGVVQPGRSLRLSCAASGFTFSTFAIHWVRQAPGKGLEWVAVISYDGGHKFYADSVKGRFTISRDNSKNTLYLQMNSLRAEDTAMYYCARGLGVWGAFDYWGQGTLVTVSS VL: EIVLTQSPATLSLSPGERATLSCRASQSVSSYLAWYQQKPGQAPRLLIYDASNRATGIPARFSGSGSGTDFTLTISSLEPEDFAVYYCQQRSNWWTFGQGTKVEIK | 106%
HuMab 084 (antibody, V domains shown, also called TH1014-084; PC1014-084) VH: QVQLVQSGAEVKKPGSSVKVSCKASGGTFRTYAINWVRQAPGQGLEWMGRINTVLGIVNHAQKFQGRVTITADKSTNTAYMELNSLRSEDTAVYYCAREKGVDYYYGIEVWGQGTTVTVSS VL: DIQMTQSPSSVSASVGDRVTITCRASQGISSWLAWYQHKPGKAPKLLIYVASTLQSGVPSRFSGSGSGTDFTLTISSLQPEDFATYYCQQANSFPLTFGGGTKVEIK | 109%
HuMab 091 (antibody, V domains shown, also called TH1014-091; PC1014-091) VH: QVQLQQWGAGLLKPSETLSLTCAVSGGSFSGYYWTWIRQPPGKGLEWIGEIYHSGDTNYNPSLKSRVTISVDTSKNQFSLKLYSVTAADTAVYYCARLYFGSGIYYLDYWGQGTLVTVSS VL: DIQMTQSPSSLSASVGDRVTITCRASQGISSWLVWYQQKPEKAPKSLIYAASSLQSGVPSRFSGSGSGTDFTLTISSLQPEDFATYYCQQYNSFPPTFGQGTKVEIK | 98%
HuMab 025 (antibody, V domains shown, also called TH1014-025; PC1014-025) VH: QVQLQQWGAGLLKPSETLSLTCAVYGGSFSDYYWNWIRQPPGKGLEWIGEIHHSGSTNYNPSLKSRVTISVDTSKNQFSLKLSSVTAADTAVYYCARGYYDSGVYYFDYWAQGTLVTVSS VL: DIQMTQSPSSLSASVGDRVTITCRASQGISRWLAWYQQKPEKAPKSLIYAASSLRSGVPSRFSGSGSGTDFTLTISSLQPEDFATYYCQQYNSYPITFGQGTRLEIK | 102%
HuMab 127 (antibody, V domains shown) VH: EVQLVQSGAEVKKPGESLTISCKGSGYSFSIYWIGWVRQMPGKGLEWMGIIFPGDSDIRYSPSFQGQVTISADKSISTAYLQWSSLKASDTAMYYCARQPGDWSPRHWYFDLWGRGTLVTVSS VL: VIWMTQSPSLLSASTGDRVTISCRMSQGISSYLAWYQQKPGKAPELLIYAASTLQSGVPSRFSGSGSGTDFTLTISYLQSEDFATYYCQQYYSFPLTFGGGTKVEIK | 58%
